Biological target: hKCNK10 (TREK-2) (Homo sapiens, UniProt P57789)
Construct: full-length cDNA clone purchased from Imagenes, subcloned into pSGEM (cRNA, Xenopus laevis oocytes) and pCDNA3 (HEK293); K2P channels are homodimers
Sequence (P57789 whole entry): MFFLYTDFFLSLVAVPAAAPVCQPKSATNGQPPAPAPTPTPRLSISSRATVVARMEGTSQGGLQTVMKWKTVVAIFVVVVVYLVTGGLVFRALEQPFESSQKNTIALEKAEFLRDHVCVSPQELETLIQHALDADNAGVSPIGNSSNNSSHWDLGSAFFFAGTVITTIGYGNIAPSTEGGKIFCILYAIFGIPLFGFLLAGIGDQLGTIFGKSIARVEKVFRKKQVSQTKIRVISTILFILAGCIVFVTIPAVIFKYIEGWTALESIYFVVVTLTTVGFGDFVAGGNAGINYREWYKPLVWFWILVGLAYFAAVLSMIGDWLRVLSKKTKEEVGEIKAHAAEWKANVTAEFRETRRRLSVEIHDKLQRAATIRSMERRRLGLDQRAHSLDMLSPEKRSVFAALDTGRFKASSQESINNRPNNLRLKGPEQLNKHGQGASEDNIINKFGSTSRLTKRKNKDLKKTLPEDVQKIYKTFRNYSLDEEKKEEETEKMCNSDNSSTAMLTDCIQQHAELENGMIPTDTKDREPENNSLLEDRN
Assay: two-electrode voltage clamp, Xenopus oocytes, current at +[…] mV
outcome measure: pEC50
Remember, pEC50 is on a log scale: it is -log10 of the molar concentration.

Exam item: Given the compound `NCCOB(c1ccccc1)c1ccccc1` , what is its reported pEC50?
Marked response: 2.91

====

Biological target: hKCNK2 (hTREK-1) (Homo sapiens)
Construct: full-length cDNA clone in pDNR-dual purchased from Imagenes, subcloned into pSGEM; cRNA injected in Xenopus laevis oocytes; K2P channels are homodimers
Sequence (O95069 whole entry): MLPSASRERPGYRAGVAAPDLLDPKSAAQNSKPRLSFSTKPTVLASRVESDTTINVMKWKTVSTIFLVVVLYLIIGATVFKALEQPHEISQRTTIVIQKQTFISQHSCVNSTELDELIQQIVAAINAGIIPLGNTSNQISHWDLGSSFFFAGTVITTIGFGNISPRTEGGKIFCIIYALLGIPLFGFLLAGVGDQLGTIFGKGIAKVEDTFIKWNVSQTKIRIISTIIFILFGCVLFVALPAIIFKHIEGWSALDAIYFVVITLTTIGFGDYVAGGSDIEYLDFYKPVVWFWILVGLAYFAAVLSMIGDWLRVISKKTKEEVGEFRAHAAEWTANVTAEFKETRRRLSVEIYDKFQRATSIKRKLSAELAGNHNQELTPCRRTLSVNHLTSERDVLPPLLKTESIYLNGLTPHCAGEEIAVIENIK
Experiment: two-electrode voltage clamp, Xenopus oocytes, current at +[…] mV
outcome measure: pEC50
Here pEC50 is given on a logarithmic scale as minus log10 of the concentration in mol/L.

Exam item: Fill in: pEC50 of `NCCOB(c1ccccc1)c1ccccc1` is ___
Marked response: 3.31
